# assay target: human VR1 (Homo sapiens)
# Construct: The cloned hVR1 cDNA was constructed with pcDNA3 vector and transfected into a CHOluc9aeq cell line; expressed in transfected cells
# Sequence (Q8NER1 whole entry): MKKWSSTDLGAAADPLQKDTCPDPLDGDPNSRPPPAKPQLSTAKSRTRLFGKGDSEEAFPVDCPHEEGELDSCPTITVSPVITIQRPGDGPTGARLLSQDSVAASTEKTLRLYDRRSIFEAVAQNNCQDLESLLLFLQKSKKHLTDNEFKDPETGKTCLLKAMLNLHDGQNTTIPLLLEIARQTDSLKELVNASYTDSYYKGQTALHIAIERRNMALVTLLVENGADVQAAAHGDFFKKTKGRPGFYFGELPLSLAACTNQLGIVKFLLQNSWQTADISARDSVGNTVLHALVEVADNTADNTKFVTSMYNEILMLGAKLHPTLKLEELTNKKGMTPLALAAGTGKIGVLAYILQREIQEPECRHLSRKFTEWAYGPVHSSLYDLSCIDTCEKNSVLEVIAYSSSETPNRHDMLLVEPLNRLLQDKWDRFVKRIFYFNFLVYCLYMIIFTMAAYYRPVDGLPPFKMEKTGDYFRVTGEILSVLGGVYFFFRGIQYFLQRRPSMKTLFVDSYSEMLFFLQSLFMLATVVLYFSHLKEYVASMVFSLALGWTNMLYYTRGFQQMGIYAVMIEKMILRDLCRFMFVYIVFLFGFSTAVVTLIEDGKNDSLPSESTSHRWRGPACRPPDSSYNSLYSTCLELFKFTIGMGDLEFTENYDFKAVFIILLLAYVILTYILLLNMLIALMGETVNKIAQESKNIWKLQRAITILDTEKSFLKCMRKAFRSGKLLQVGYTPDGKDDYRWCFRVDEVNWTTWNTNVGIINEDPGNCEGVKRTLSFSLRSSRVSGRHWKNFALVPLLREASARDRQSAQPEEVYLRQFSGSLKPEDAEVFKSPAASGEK
# experimental details: Capsaicin-induced Ca2+ influx in the human VR1-transfected CHO cell line (Assay 1)
# Format: cell-based
# experimental context: read-out: hVR1 class
# Source text: [Measurement of Capsaicin-Induced Ca^2+ Influx in the Human VR1-Transfected CHO Cell Line] (Assay 1) (1) Establishment of the Human VR1-CHOluc9aeq Cell Line Human vanilloid receptor (hVR1) cDNA was cloned from libraries of axotomized dorsal root ganglia (WO2000/29577). The cloned hVR1 cDNA was constructed with pcDNA3 vector and transfected into a CHOluc9aeq cell line. The cell line contains aequorin and CRE-luciferase reporter genes as read-out signals. […]
recorded endpoint: IC50

COc1cccc(NC(=O)Nc2ccc3[nH]c(C(F)(F)F)nc3c2)c1; 500 to 1000 nM
Cc1nc2cc(NC(=O)Nc3cccc(C(F)(F)F)c3)ccc2s1; < 100 nM
O=C(Nc1cc(C(F)(F)F)ccc1Cl)Nc1cccc2[nH]ccc12; < 100 nM
Cc1cccc(NC(=O)Nc2ccc3[nH]ncc3c2)c1; 500 to 1000 nM
Cc1nc2cc(NC(=O)Nc3ccc(Oc4ccccc4)cc3)ccc2s1; < 100 nM
O=C(Nc1ccc(Br)cc1)Nc1ccc2[nH]c(C(F)(F)F)nc2c1; 500 to 1000 nM
O=C(Nc1cccc(-c2ccccc2)c1)Nc1ccc2[nH]ccc2c1; 100 to 500 nM
CSc1cccc(NC(=O)Nc2ccc3[nH]ccc3c2)c1; 100 to 500 nM
O=C(Nc1cccc(C(F)(F)F)c1)Nc1cccc2[nH]ccc12; < 100 nM
O=C(Nc1ccccc1-c1ccccc1)Nc1cccc2[nH]ccc12; 500 to 1000 nM

Field: next molecule
Provide value of IC50 for this record tested with human VR1 (Homo sapiens): `Cc1nc2cc(NC(=O)Nc3ccc(Cl)c(C(F)(F)F)c3)ccc2[nH]1`
500 to 1000 nM

----------
Below: a set of entries, each annotated with reported IC50.
# assay target: human VR1 (Homo sapiens)
# Construct: The cloned hVR1 cDNA was constructed with pcDNA3 vector and transfected into a CHOluc9aeq cell line; expressed in transfected cells
# experimental details: Capsaicin-induced Ca2+ influx in the human VR1-transfected CHO cell line (Assay 1)
# Type: cell-based
# experimental context: read-out: hVR1 class

// worked examples, IC50 included
Cc1nc2cc(NC(=O)Nc3ccc(C)c(Cl)c3)ccc2s1 [Example 31]; < 100 nM
CC(C)c1ccc(NC(=O)Nc2cccc3[nH]ccc23)cc1 [Example 66]; < 100 nM
CC(C)c1ccc(NC(=O)Nc2ccc3[nH]cnc3c2)cc1 [Example 59]; 500 to 1000 nM
Cc1nc2c(NC(=O)Nc3ccc(Cl)c(C(F)(F)F)c3)cccc2[nH]1 [Example 53]; < 100 nM

Could you tell me which IC50 is on file for O=C(Nc1cccc(Cl)c1)Nc1cccc2[nH]ccc12 [Example 87] ?
100 to 500 nM

Could you tell me which IC50 is on file for Cc1cccc(NC(=O)Nc2ccc3[nH]c(C(F)(F)F)nc3c2)c1 [Example 76] ?
500 to 1000 nM

Could you tell me which IC50 is on file for Cc1nc2cc(NC(=O)Nc3ccc(C(C)C)cc3)ccc2[nH]1 [Example 50] ?
500 to 1000 nM

Could you tell me which IC50 is on file for O=C(Nc1ccc(Oc2ccccc2)cc1)Nc1cccc2[nH]ccc12 [Example 37] ?
100 to 500 nM

Could you tell me which IC50 is on file for Cc1nc2cc(NC(=O)Nc3ccc(Oc4ccccc4)cc3)ccc2[nH]1 [Example 49] ?
500 to 1000 nM

Could you tell me which IC50 is on file for Cc1cccc(NC(=O)Nc2ccc3[nH]ccc3c2)c1 [Example 70] ?
500 to 1000 nM

Could you tell me which IC50 is on file for O=C(Nc1ccc(F)cc1)Nc1cccc2[nH]ccc12 [Example 35] ?
100 to 500 nM

Could you tell me which IC50 is on file for O=C(NCc1cccc(F)c1)Nc1cccc2[nH]ccc12 [Example 99] ?
500 to 1000 nM

Could you tell me which IC50 is on file for COc1cccc(NC(=O)Nc2ccc3[nH]ccc3c2)c1 [Example 73] ?
500 to 1000 nM

Could you tell me which IC50 is on file for O=C(NCc1ccccc1Cl)Nc1cccc2[nH]ccc12 [Example 101] ?
100 to 500 nM

Could you tell me which IC50 is on file for O=C(Nc1ccc(Br)cc1)Nc1cccc2[nH]ccc12 [Example 60] ?
100 to 500 nM

Could you tell me which IC50 is on file for O=C(Nc1ccc(Cl)c(C(F)(F)F)c1)Nc1ccc2c(c1)S(=O)(=O)C=C2 [Example 13] ?
< 100 nM

Could you tell me which IC50 is on file for O=C(Nc1cccc2ccccc12)Nc1cccc2[nH]ccc12 [Example 62] ?
< 100 nM

Could you tell me which IC50 is on file for CSc1cccc(NC(=O)Nc2ccc3c(c2)S(=O)(=O)C=C3)c1 [Example 42] ?
100 to 500 nM

Could you tell me which IC50 is on file for Cc1nc2cc(NC(=O)Nc3ccc4ccccc4c3)ccc2s1 [Example 27] ?
< 100 nM

Could you tell me which IC50 is on file for O=C(Nc1ccc(Cl)c(C(F)(F)F)c1)Nc1ccc2[nH]nnc2c1 [Example 10] ?
100 to 500 nM

Could you tell me which IC50 is on file for Cc1nc2cc(NC(=O)Nc3cccc4ccccc34)ccc2s1 [Example 40] ?
< 100 nM

Could you tell me which IC50 is on file for Cc1nc2cc(NC(=O)Nc3cc(C(F)(F)F)ccc3Cl)ccc2s1 [Example 32] ?
< 100 nM

Could you tell me which IC50 is on file for Cc1nc2cc(NC(=O)Nc3ccc(C)c(Cl)c3)ccc2[nH]1 [Example 51] ?
500 to 1000 nM

Could you tell me which IC50 is on file for COc1ccc(CNC(=O)Nc2cccc3[nH]ccc23)cc1 [Example 102] ?
500 to 1000 nM

Could you tell me which IC50 is on file for COc1ccc(NC(=O)Nc2ccc3sc(C)nc3c2)cc1 [Example 28] ?
100 to 500 nM

Could you tell me which IC50 is on file for O=C(Nc1ccc2ccccc2c1)Nc1cccc2[nH]ccc12 [Example 88] ?
100 to 500 nM
